Assayed system: Human immunodeficiency virus type 1 protease (Human immunodeficiency virus 1, UniProt Q72874)
pIC50: −log10 of the molar value.
Readout type: pIC50

Query string: Please list pIC50 recorded for the compound CCOC1=C(c2ccccc2)Oc2ccccc2-n2cccc21
Result string: < 3.52

====

System: CEM-SS
Test method notes: ED50 value determined from the inhibition of HIV strain HIV-1 RF, activity tested on CEM-SS cell lines.
Assay type: functional
Test context: Homo sapiens, read-out: ED50 (the source's name)
Readout type: EC50 (nM)
Record the value in nM, omitting the unit from your answer.

Query string: Please list EC50 recorded for the compound CCC1(c2ccccc2)Oc2ccccc2-n2cccc2C1=O (stereo unspecified)
Result string: 120

====

System: MT4
Test method notes: ED50 value determined from the inhibition of HIV strain HIV-1 (6R), activity tested on MT-4 cell lines.
Assay type: functional
Test context: Homo sapiens, read-out: ED50 (the source's name)
Readout type: EC50 (nM)
Record the value in nM, omitting the unit from your answer.

Query string: Please list EC50 recorded for the molecule CCC1(c2ccccc2)Oc2ccccc2-n2cccc2C1=O (stereo unspecified)
Result string: 1600

====

Test method notes: Selective index is the ratio between IC50 and EC50
Type: functional
# SI annotations
API note: the answer field is a bare number with no unit suffix.

Known results for compounds:
INSERT INTO assay_data (compound, readout_type, assay_result) VALUES
  ('CCC1(c2ccc3ccccc3c2)Oc2ccccc2-n2cccc2C1=O (stereo unspecified)', 'SI', 44),
  ('CCC1(c2ccccc2)Sc2ccccc2-n2cccc2C1=O (stereo unspecified)', 'SI', 55.2),
  ('Cc1cn([C@H]2C[C@H](N=[N+]=[N-])[C@@H](CO)O2)c(=O)[nH]c1=O', 'SI', 526),
  ('C=CCC1(c2ccccc2)Oc2ccccc2-n2cccc2C1=O (stereo unspecified)', 'SI', 9),
  ('CC1(c2ccccc2)Oc2ccccc2-n2cccc2C1=O (stereo unspecified)', 'SI', 19.7);

Now for another entry.
Query string: Please list SI recorded for the compound CCC1(CC=C(C)C)Oc2ccccc2-n2cccc2C1=O (stereo unspecified)
Result string: 35

====

Assayed system: Human immunodeficiency virus type 1 reverse transcriptase (Human immunodeficiency virus 1, UniProt Q72547)
# log10 IC50 annotations
Hey, these are logged values: log10 of IC50, µM being the unit before logging.

Known results for molecules:
INSERT INTO assay_data (molecule, readout_type, assay_result) VALUES
  ('CCC1(c2ccccc2)Sc2cccc(Cl)c2-n2cccc2C1=O (stereo unspecified)', 'log10 IC50', 2.78),
  ('CCC1Oc2ccccc2-n2cccc2C1=O (stereo unspecified)', 'log10 IC50', 2.00),
  ('CC1(c2ccccc2)Oc2ccccc2-n2cccc2C1=O (stereo unspecified)', 'log10 IC50', 1.00),
  ('C=CCC1(c2ccccc2)Oc2ccccc2-n2cccc2C1=O (stereo unspecified)', 'log10 IC50', 1.40),
  ('O=C1c2cccn2-c2ccccc2SC1c1ccccc1 (stereo unspecified)', 'log10 IC50', 2.00);

Now for another entry.
Query string: Please list log10 IC50 recorded for the molecule CCC1(c2ccccc2)C(=O)c2cccn2-c2ccccc2[S+]1[O-] (stereo unspecified)
Result string: 2.70

====

# IC50 annotations
Test system: CEM-SS
Test method notes: Cytotoxic concentration against 50% survival of uninfected untreated control CEM-SS cells
Assay type: cell-based
Test context: Homo sapiens
Record the value in µM, omitting the unit from your answer.

Known results for compounds:
INSERT INTO results (compound, assay_result) VALUES
  ('CC1(c2ccccc2)Oc2ccccc2-n2cccc2C1=O (stereo unspecified)', 6.9),
  ('CC(C)=CCC1(c2ccccc2)Oc2ccccc2-n2cccc2C1=O (stereo unspecified)', 120),
  ('CCC1(c2ccccc2)Oc2ccccc2-n2cccc2C1=O (stereo unspecified)', 4.9),
  ('CCC1(CC=C(C)C)Oc2ccccc2-n2cccc2C1=O (stereo unspecified)', 45.2),
  ('C=CCC1(c2ccccc2)Oc2ccccc2-n2cccc2C1=O (stereo unspecified)', 6.4),
  ('O=C1c2cccn2-c2ccccc2OC1(CC1CC1)c1ccccc1 (stereo unspecified)', 11.8),
  ('CCC1(c2ccc3ccccc3c2)Oc2ccccc2-n2cccc2C1=O (stereo unspecified)', 37.3),
  ('O=C1c2cccn2-c2ccccc2SC1c1ccccc1 (stereo unspecified)', 18.3);

Now for another entry.
Query string: Please list IC50 recorded for the compound CCC1(c2ccccc2)Sc2ccccc2-n2cccc2C1=O (stereo unspecified)
Result string: 100
